system: M14 melanoma; experiment: NCI tumour cell line growth inhibition, 48 h
parameter: TGI

Recorded TGI, per entry:
[[record]]
compound = "Cc1ccc(NC(=O)CSc2nnc(Cc3ccccc3)o2)cc1"
result = "> 100 µM"

[[record]]
compound = "COc1cc2c(cc1O)CN1CCC23C=C[C@@H](O)CC13 (some centres undefined)"
result = "> 100 µM"

[[record]]
compound = "COc1ccccc1/C=C/C1=C(C)CCC(c2ccccc2OC)C1C (centres undefined)"
result = "0.655 µM"

[[record]]
compound = "O=C(/C=C/C(Cl)(Cl)Cl)Nc1ccc(Cl)cc1"
result = "11.7 µM"

[[record]]
compound = "Cc1cc(S(=O)(=O)Nc2n[nH]c(Nc3ccc4ccccc4c3)n2)c(S)cc1Cl"
result = "> 100 µM"


Next compound, please.
Qu. Give its TGI value. Item: COc1cc(C2C(C(=O)Nc3ccc([N+](=O)[O-])cc3)=C(C)NC(C)=C2C(=O)Nc2ccc([N+](=O)[O-])cc2)ccc1O
Ans. > 60.5 µM

Source listed as PubChem BioAssay (NCI).
